Listing: %Inh of selected molecules
Tested on: RPS6KA4(Kin.Dom.1-N-terminal)
Conditions: concentration: 1 μM, replicates: in singlicate; n = 1;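 note: KINOMEscan kinase panel screen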
readout.name: %Inh

>>> df
                                   molecule  readout_name  test_result
0  Cc1cc(Nc2nc(-c3cccc(C)n3)nc3ccccc23)ccn1 [GW872411]          %Inh           2%
1  COc1cc(Nc2nccc(N3CCC(NC(=O)C(C)c4ccc(Cl)cc4)C3)n2)cc(OC)c1OC (stereo not shown) [GSK1379757]          %Inh           0%
2  CCC(=O)c1c(-c2ccccc2)c2cc(Cl)ccc2c(=O)n1Cc1cc(C(=O)NC2CC2)n(C)n1          %Inh           0%
3  COc1ccc(-c2cc3c(C)nc(N)nc3n([C@H]3CC[C@H](OCCO)CC3)c2=O)cn1          %Inh           0%
4  CN1C(=O)C(Nc2cc(Cl)c(O)c(Cl)c2)=C(c2ccc(Cl)cc2)C1=O [SB-404321]          %Inh           0%
5  Cc1ccccc1COc1cc(-n2cnc3cc(Cl)ccc32)sc1C(N)=O [GW813349]          %Inh          10%
6  O=c1cc(N2CCOCC2)nc2n(Cc3ccc(F)c(Cl)c3)ccn12 [GSK2297099]          %Inh           4%

====

Listing: %Inh of selected compounds
Test system: LZK
Construct: gene MAP3K13
Details: concentration: 1 μM, replicates: in singlicate; n = 1
readout.name: %Inh (%)

                                    compound  readout_name  test_result
 0  Cc1nn2c(=O)cc(N3CCOCC3)nc2n1Cc1cccc(Cl)c1Cl          %Inh            0
 1  Cc1c(Cn2c(C)nn3c(=O)cc(N4CCO[C@H](C)C4)nc23)cccc1C(F)(F)F          %Inh            0
 2  COc1ccc(-c2cc3c(C)nc(N)nc3n([C@H]3CC[C@H](O)CC3)c2=O)cn1          %Inh            0
 3   Nc1n[nH]c2nnc(-c3ccccc3)c(-c3ccccc3)c12          %Inh            3
 4  COc1cccc(C2=C(N(C)c3ccccc3)C(=O)NC2=O)c1          %Inh           32
 5  COC(=O)c1c(-c2ccccc2)c2cc(C)ccc2c(=O)n1Cc1ccccc1          %Inh            0
 6  Cn1c(=O)c(F)c(Nc2ccc(I)cc2F)c2c(=O)n(OC[C@H](O)CO)cnc21          %Inh            0
 7  O=C(NCCNc1ccnc(Nc2ccc(F)cc2)n1)Nc1ccc2c(c1)OCO2          %Inh            0
 8   O=C(Nc1n[nH]c2cc(-c3ccccc3F)ccc12)C1CC1          %Inh            0
 9                 CCn1c(-c2ccoc2)nc2cnccc21          %Inh            0
10              Nc1n[nH]c2ncc(-c3ccccc3)cc12          %Inh            0
11  COc1cc(Nc2nccc(N3CCC(NC(=O)C4COc5ccccc5O4)C3)n2)cc(OC)c1OC (stereo not shown)          %Inh           58
12  OCCCNc1nccc(-c2c(-c3cccc(C(F)(F)F)c3)nn3cc(C(F)(F)F)ccc23)n1          %Inh           43
13  COc1cc(Nc2nccc(N3CCC(NC(=O)C(C)c4ccc(Cl)cc4)C3)n2)cc(OC)c1OC (stereo not shown)          %Inh            0
14  O=C(NCc1cccs1)c1cc(C(=O)c2c(Cl)cccc2Cl)c[nH]1          %Inh            0
15               Nc1ncnc2c1ncn2-c1ccc(Cl)cc1          %Inh           27
16  O=c1cc(N2CCOCC2)nc2n(Cc3ccc(F)c(Cl)c3)ccn12          %Inh            0
17  Cc1cc(Nc2nc(-c3cccc(C)n3)nc3ccccc23)ccn1          %Inh            0
18  COc1ccc(Nc2nccc(N3CCC(NS(=O)(=O)c4ccc(NC(C)=O)cc4)C3)n2)cc1 (stereo not shown)          %Inh            0
19  Cl.c1ccc(Cn2cnc3cc(Nc4ncnc5ccccc45)ccc32)cc1          %Inh           22
20      CN1C(=O)C(Nc2ccccc2)=C(c2ccccc2)C1=O          %Inh            0
21  O=C(Nc1n[nH]c2nc(-c3ccccc3)c(Br)cc12)C1CC1          %Inh            0

These measurements were taken from paper PMC5540273.
